Tested on: Plasmodium falciparum Sir2 (PF13_0152, Sir2A)
Assay: Plasmodium falciparum Sir2A binding compounds – biochemical, small-molecule microarray, 635 nm fluorescence, primary screen (AID 1098);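 also: score merges spot fluorescence intensity with its signal-to-noise ratio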
Details: fluorescence 635 nm, higher = more signal
experimental_endpoint: composite z-score

COC(=O)[C@@]1(Cc2ccccc2)[C@H]2c3cc(C(=O)N4CCCC4)n(Cc4ccc(OC(F)(F)F)cc4)c3C[C@H]2CN1C(=O)c1ccccc1 :: 0.716
Cc1ccccc1C(O)C1C=CC2C(=O)N(C)C(=O)C2N1Nc1ccc([N+](=O)[O-])cc1[N+](=O)[O-] (stereo not drawn) :: 0.878
COCC(=C=CC[C@@H](O)c1ccccc1OCCO)C[C@@H](O)c1ccccn1 :: 0.378
CN(C)CCCNC(=O)[C@@]1(Cc2ccccc2I)c2ccccc2C(=O)N(Cc2ccccc2Cl)[C@H]1c1ccc(CO)cc1 :: 1.56
CC(C)CNC(=O)[C@@]1(C)c2ccccc2C(=O)N(Cc2ccccc2)[C@H]1c1ccc(CO)cc1 :: 0.651
COc1ccc([Si](C)(C)[C@H]2[C@H](CCO)O[C@@]3(C(=O)N(Cc4cccc(N5CCOC5=O)c4)c4ccccc43)[C@@H]2C)cc1 :: 1.17
CC(C)(C)N1CC=CC23O[C@@H]4C=CCCOC(=O)C4[C@H]2C(=O)N(CCCO)[C@@H]3C1=O (stereo partly drawn) :: -0.992
C[C@@]1([C@@H](NC(=O)c2cccs2)c2ccc(-c3ccccc3)cc2)C[C@H]1C1CCCCC1 :: 0.385

Data provenance is PubChem BioAssay.
